Values were extracted from ChEMBL document CHEMBL1155442.

# Assay remarks: Selectivity index, ratio of CC50 for human fibroblast to Ki for beta-glucocerebrosidase
Recorded Selectivity Index by entry
Give a plain numeric answer without units written out.

[[record]]
mol = "CCCCCCCCCCCCCCn1cc(CN[C@H]2[C@H](O)[C@@H](O)[C@H](O)[C@@H](O)[C@@H]2O)nn1"
assay_result = 237


Kindly consider the entry below.
# Selectivity Index of `CCCCCCCCCCCCn1cc(CN[C@H]2[C@H](O)[C@@H](O)[C@H](O)[C@@H](O)[C@@H]2O)nn1` = 916

====

# Target of assay: Lysosomal acid glucosylceramidase (Homo sapiens)
# Sequence (whole entry): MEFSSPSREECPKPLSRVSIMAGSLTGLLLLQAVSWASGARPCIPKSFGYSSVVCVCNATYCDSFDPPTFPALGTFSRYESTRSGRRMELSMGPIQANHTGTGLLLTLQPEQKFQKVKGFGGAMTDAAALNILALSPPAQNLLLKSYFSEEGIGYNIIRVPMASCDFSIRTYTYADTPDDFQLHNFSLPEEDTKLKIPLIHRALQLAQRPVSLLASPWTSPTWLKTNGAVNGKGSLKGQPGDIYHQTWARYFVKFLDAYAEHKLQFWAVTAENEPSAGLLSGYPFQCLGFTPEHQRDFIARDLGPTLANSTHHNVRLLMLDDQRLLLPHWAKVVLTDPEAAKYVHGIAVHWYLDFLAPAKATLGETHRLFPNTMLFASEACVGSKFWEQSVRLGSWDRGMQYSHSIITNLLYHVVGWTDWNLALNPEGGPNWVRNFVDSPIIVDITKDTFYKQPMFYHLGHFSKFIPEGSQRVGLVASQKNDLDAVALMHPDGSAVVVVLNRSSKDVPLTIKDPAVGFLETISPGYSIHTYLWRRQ
# Assay remarks: Binding affinity to recombinant beta-glucocerebrosidase assessed as enzymatic activity at 100 uM after 20 mins by thermal stabilization assay relative to control
Measured quantity: fold change (FC)

[[record]]
mol = "CCCCCCCCCCCn1cc(CCN[C@H]2[C@H](O)[C@@H](O)[C@H](O)[C@@H](O)[C@@H]2O)nn1"
assay_result = 2.55

[[record]]
mol = "CCCCCCCCCCn1cc(CN[C@H]2[C@H](O)[C@@H](O)[C@H](O)[C@@H](O)[C@@H]2O)nn1"
assay_result = 2.91

[[record]]
mol = "CCCCCCCCCCN[C@H]1[C@H](O)[C@@H](O)[C@H](O)[C@@H](O)[C@@H]1O"
assay_result = 1.84

[[record]]
mol = "CCCCCCCCCn1cc(CN[C@H]2[C@H](O)[C@@H](O)[C@H](O)[C@@H](O)[C@@H]2O)nn1"
assay_result = 2.28

[[record]]
mol = "CCCCCCCCCCCCn1cc(CN[C@H]2[C@H](O)[C@@H](O)[C@H](O)[C@@H](O)[C@@H]2O)nn1"
assay_result = 3.41

[[record]]
mol = "CCCCCCCCCn1cc(CCN[C@H]2[C@H](O)[C@@H](O)[C@H](O)[C@@H](O)[C@@H]2O)nn1"
assay_result = 2.32

[[record]]
mol = "CCCCCCCCCCCCCCn1cc(CN[C@H]2[C@H](O)[C@@H](O)[C@H](O)[C@@H](O)[C@@H]2O)nn1"
assay_result = 2.88

